Reference source: patent US10463644B2

Test system: cancer cells
Assay: Survival rate of cancer cells after test compound is added (flow cytometry, Annexin V-FITC/PI, clinical specimen)
Type: cell-based, patient
Conditions: Homo sapiens, 18 h, Ovarian cancer; 20.0 μM; read-out: Survival rate (%) All cells (Stem cells and ordinary cells)
recorded.metric: viability at 20 µM (%)

INSERT INTO measurements (compound, target_under_test, recorded_metric, test_result) VALUES
  ('C=C1C(=O)O[C@@H]2[C@H]3C(C)=CC[C@@]34O[C@@]4(C)CC[C@@H]12 [Compound 50]', 'cancer cells', 'viability at 20 µM', 67),
  ('C=C1C(=O)O[C@@H]2[C@@H]3[C@@H](CC[C@@]3(C)O)C(=C)CC[C@@H]12 [Compound 48]', 'cancer cells', 'viability at 20 µM', 61),
  ('C=C1C(=O)O[C@H]2[C@H]1CCC(C)=C1CC[C@@](C)(OC(=O)CCCc3cn(CCCCCCO)nn3)[C@@H]12 [Compound 21]', 'cancer cells', 'viability at 20 µM', 57),
  ('CCOC(=O)[C@@H]1CCCN1C[C@@H]1C(=O)O[C@H]2[C@H]1CCC1(CC1)[C@@H]1CCC3(CC3)[C@H]21 [Compound 29]', 'cancer cells', 'viability at 20 µM', 89),
  ('C=C1C(=O)O[C@@H]2[C@@H]3[C@@H](CCC34CC4)C3(CC[C@@H]12)CC3 [Compound 26]', 'cancer cells', 'viability at 20 µM', 84),
  ('CN(C)C[C@@H]1C(=O)O[C@H]2[C@H]1CCC1(CC1)[C@@H]1CCC3(CC3)[C@H]21 [Compound 35]', 'cancer cells', 'viability at 20 µM', 88),
  ('C=C1C(=O)O[C@H]2[C@H]1CC[C@]1(C)O[C@@]13CC[C@@](C)(O)[C@H]23 [Compound 24]', 'cancer cells', 'viability at 20 µM', 61);
